Target: purified recombinant human GAC (GLS1) (Homo sapiens (Human))
Test: GLS1 Enzymatic Activity Assay (dual-coupled enzymatic assay, resorufin/Amplex UltraRed readout)
pIC50: −log10 of the molar value.
measurementName: pIC50

compound: O=C(Cc1cc(Cl)ccc1F)Nc1cn(CCCCn2cc(C(=O)NCc3cc(Cl)ccc3F)nn2)nn1
measurementName: pIC50
assayResult: > 7.00

compound: O=C(NCc1cccc(OC(F)(F)F)c1)c1cn(CC(F)CCc2nnc(C(=O)NCc3cc(C(F)(F)F)ccn3)s2)nn1 (stereo not shown)
measurementName: pIC50
assayResult: > 7.00

compound: O=C(Cc1nccs1)Nc1nnc(CCC(F)Cn2cc(C(=O)NCc3cc(OC(F)(F)F)ccc3F)nn2)s1 (stereo not shown)
measurementName: pIC50
assayResult: > 7.00

compound: O=C(NCc1cccc(C(F)(F)F)n1)c1cn(CCC(F)Cn2cc(C(=O)NCc3cc(OC(F)(F)F)ccc3F)nn2)nn1 (stereo not shown)
measurementName: pIC50
assayResult: > 7.00

compound: O=C(NCc1cncc(C(F)(F)F)c1)c1cn(CC(F)CCc2nnc(C(=O)NCc3cccc(OC(F)(F)F)c3)s2)nn1 (stereo not shown)
measurementName: pIC50
assayResult: > 7.00

Value sought: pIC50, system purified recombinant human GAC (GLS1) (Homo sapiens (Human)), item CNC(=O)c1nnc(CCC(F)Cn2cc(C(=O)NCc3cncc(C(F)(F)F)c3)nn2)s1 (stereo not shown) . Result: 6.30 to 7.00

The value of pIC50 recorded for O=C(Cc1cc(OC(F)(F)F)ccc1F)Nc1cn(CCC(F)Cn2cc(C(=O)NCc3ccccn3)nn2)nn1 (stereo not shown) when tested on purified recombinant human GAC (GLS1) (Homo sapiens (Human)) reads > 7.00

---

Biological target: purified recombinant human GAC (GLS1) (Homo sapiens (Human))
Experiment: GLS1 Enzymatic Activity Assay (dual-coupled enzymatic assay, resorufin/Amplex UltraRed readout)
pIC50: −log10 of the molar value.
measurementName: pIC50

These recorded examples may help you get a feel for the data.
smilesNotation: Cc1ccc(CNC(=O)c2cn(CCCCc3nnc(C(=O)NCC4CN(C(=O)OC(C)(C)C)C4)s3)nn2)cn1
targetEntity: purified recombinant human GAC (GLS1) (Homo sapiens (Human))
pIC50: 6.30 to 7.00

smilesNotation: O=C(Cc1cccc(OC(F)(F)F)c1)Nc1cn(CCCCn2cc(C(=O)NCc3cc(OC(F)(F)F)ccc3F)nn2)nn1
targetEntity: purified recombinant human GAC (GLS1) (Homo sapiens (Human))
pIC50: 5.30 to 6.30

smilesNotation: O=C(Cc1cccnc1)Nc1cn(CCCCn2cc(C(=O)NCc3cccnc3)nn2)nn1
targetEntity: purified recombinant human GAC (GLS1) (Homo sapiens (Human))
pIC50: 6.30 to 7.00

# molecule O=C(NCc1cccc(OC(F)(F)F)c1)c1cn(CCCCc2nnc(C(=O)NC3COC3)s2)nn1 ; its pIC50 = 6.30 to 7.00

---

Molecular target: purified recombinant human GAC (GLS1) (Homo sapiens (Human), UniProt O94925)
Sequence (O94925 other isoform, or with tags, fused parts or gaps): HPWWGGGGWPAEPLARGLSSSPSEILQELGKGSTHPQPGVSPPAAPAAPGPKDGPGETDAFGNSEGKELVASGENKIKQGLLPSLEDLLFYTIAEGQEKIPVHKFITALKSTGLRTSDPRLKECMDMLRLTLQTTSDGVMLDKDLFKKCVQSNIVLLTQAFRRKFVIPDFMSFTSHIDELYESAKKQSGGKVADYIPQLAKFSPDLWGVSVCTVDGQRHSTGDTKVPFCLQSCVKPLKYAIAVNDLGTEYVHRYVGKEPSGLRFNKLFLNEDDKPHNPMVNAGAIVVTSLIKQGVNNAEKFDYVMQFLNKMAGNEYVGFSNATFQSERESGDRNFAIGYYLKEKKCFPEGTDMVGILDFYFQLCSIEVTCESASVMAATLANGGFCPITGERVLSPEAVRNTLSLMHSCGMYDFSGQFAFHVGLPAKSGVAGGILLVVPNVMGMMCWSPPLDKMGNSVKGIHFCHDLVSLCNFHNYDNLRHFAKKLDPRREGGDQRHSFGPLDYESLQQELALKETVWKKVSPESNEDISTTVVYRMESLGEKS
Experiment: GLS1 Enzymatic Activity Assay (dual-coupled enzymatic assay, resorufin/Amplex UltraRed readout);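 further: glutamate from GAC coupled via glutamate oxidase and peroxidase to resorufin, read as fluorescence (ex 530, em 590 nm) kinetically or at 20 min, four-parameter logistic IC50 fit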
The entries below are paired with their reported IC50.

Solved entries:
compound: O=C(NCc1cccc(F)c1)c1cn(CCC(F)Cn2cc(C(=O)NCc3cc(C(F)(F)F)ccn3)nn2)nn1 (stereo not drawn)
IC50: < 0.1 µM

compound: Cc1ccc(CNC(=O)c2cn(CCCCn3cc(NC(=O)CN4CCC(F)(F)CC4)nn3)nn2)cn1
IC50: 0.5 to 5 µM

compound: CNC(=O)c1cn(CC(F)CCc2ccc(NC(=O)Cc3cc(OCC(F)(F)F)ccn3)nn2)nn1 (stereo not drawn)
IC50: < 0.1 µM

Record for CNC(=O)c1cn(C[C@H](F)CCc2ccc(NC(=O)Cc3cn(-c4cccc(OC(F)(F)F)c4)cn3)nn2)nn1 under target or system purified recombinant human GAC (GLS1) (Homo sapiens (Human), UniProt O94925): IC50 reported as < 0.1 µM

Record O=C(NCc1cccc(CO)c1)c1cn(CCCCn2cc(C(=O)NCc3cc(C(F)(F)F)ccn3)nn2)nn1 / purified recombinant human GAC (GLS1) (Homo sapiens (Human), UniProt O94925), IC50 recorded as < 0.1 µM

Entry O=C(Cc1cccc(OC(F)(F)F)c1)Nc1cn(CCCCn2cc(C(=O)NCc3cccnc3)nn2)nn1 , tested on purified recombinant human GAC (GLS1) (Homo sapiens (Human), UniProt O94925), has a reported IC50 of < 0.1 µM

Entry CC(C)NC(=O)c1nnc(CCCCn2cc(C(=O)NCc3ccccc3)nn2)s1 , purified recombinant human GAC (GLS1) (Homo sapiens (Human), UniProt O94925) data, IC50 value: 0.5 to 5 µM

Per the reported purified recombinant human GAC (GLS1) (Homo sapiens (Human), UniProt O94925) data, O=C(Cc1cc(OC(F)(F)F)ccc1F)Nc1ccc(CCCCn2cc(C(=O)NC3CC3)nn2)nn1 has IC50 of < 0.1 µM

IC50 value, target or system purified recombinant human GAC (GLS1) (Homo sapiens (Human), UniProt O94925), for O=C(Cc1ccccn1)Nc1cn(CCCCn2cc(C(=O)NCc3cc(OC(F)(F)F)ccc3F)nn2)nn1 : < 0.1 µM

Summary: O=C(NCc1cncc(C(F)(F)F)c1)c1cn(CCCCn2cc(C(=O)NCc3cncc(C(F)(F)F)c3)nn2)nn1 , purified recombinant human GAC (GLS1) (Homo sapiens (Human), UniProt O94925), IC50 = < 0.1 µM

With purified recombinant human GAC (GLS1) (Homo sapiens (Human), UniProt O94925) as the test system, O=C(CN1CCC(F)(F)C1)Nc1cn(CCCCn2cc(C(=O)NCc3ncccc3F)nn2)nn1 showed IC50 of 0.5 to 5 µM

---

Attribute: pEC50
Test system: A549 cells
Assay: Proliferation Assay (A549 viability, Cell Titer Fluor, 72 hours)
Type: cell-based
Conditions: Homo sapiens
pEC50: −log10 of the molar value.

compound: O=C(CN1CC(F)C1)Nc1cn(CC(F)CCn2cc(C(=O)NCc3cc(OC(F)(F)F)ccc3F)nn2)nn1 (stereo not shown)
measurementName: pEC50
assayResult: 6.30 to 7.00
//
compound: O=C(Cc1ccccn1)Nc1nnc(CC[C@@H](F)Cn2cc(C(=O)NCc3cc(C(F)(F)F)ccn3)nn2)s1
measurementName: pEC50
assayResult: > 7.00
//
compound: CNC(=O)c1cn(CC(F)CCc2ccc(NC(=O)Cc3cc(OCC(F)(F)F)ccn3)nn2)nn1 (stereo not shown)
measurementName: pEC50
assayResult: > 7.00
//
compound: CNC(=O)c1cn(CC(F)CCc2nnc(C(=O)NCc3cc(C(F)(F)F)ccn3)s2)nn1 (racemic)
measurementName: pEC50
assayResult: 6.30 to 7.00
//
compound: O=C(Cc1ccccn1)Nc1nnc(CCC(F)Cn2cc(C(=O)NCc3cc(C(F)(F)F)ccn3)nn2)s1 (stereo not shown)
measurementName: pEC50
assayResult: > 7.00
//
compound: O=C(CN1CCC(F)(F)CC1)Nc1cn(CCCCn2cc(C(=O)NCc3cccc(OC(F)(F)F)c3)nn2)nn1
measurementName: pEC50
assayResult: 6.30 to 7.00

// moving on: another record for pEC50
get_value(item= CNC(=O)c1cn(CCCCc2ccc(NC(=O)OC3CCCCC3)nn2)nn1 , readout=pEC50) returns 6.30 to 7.00

---

Molecular target: purified recombinant human GAC (GLS1) (Homo sapiens (Human))
Assay: GLS1 Enzymatic Activity Assay (dual-coupled enzymatic assay, resorufin/Amplex UltraRed readout)
pIC50: −log10 of the molar value.
measurementName: pIC50

Answered examples (5):
molecule: CNC(=O)c1cn(CC(F)CCc2nnc(C(=O)NCc3ccccc3)s2)nn1 (stereo not shown)
pIC50: 5.30 to 6.30

molecule: COc1ccnc(CNC(=O)c2cn(CC(F)CCc3nnc(NC(=O)Cc4cc(OC(F)(F)F)ccc4F)s3)nn2)c1 (stereo not shown)
pIC50: > 7.00

molecule: O=C(NCc1ccc(C(F)(F)F)cn1)c1cn(CC(F)CCc2nnc(C(=O)NCc3cccc(OC(F)(F)F)c3)s2)nn1 (stereo not shown)
pIC50: > 7.00

molecule: O=C(NCc1cccc(OC(F)(F)F)c1)c1cn(CCCCn2cc(C(=O)NCc3cncc(N4CC(F)(F)C4)c3)nn2)nn1
pIC50: > 7.00

molecule: O=C(Cc1cccc(OC(F)(F)F)c1)Nc1ccc(CCCCc2nnc(C(=O)NCc3ccccc3)s2)nn1
pIC50: > 7.00

// O=C(Cc1cc(C2CC2)ccn1)Nc1nnc(CCC(F)Cn2cc(C(=O)NCc3cncc(C(F)(F)F)c3)nn2)s1 (stereo not shown) : pIC50 value = > 7.00

O=C(Cc1cc(OC(F)(F)F)ccc1F)Nc1ccc(CCCCn2cc(C(=O)NCc3ccccn3)nn2)nn1 has a reported pIC50 of > 7.00
